Test system: COLO 205 colon
assay-notes: NCI tumour cell line growth inhibition, 48 h
I'd be grateful if you could share measured log10 of TGI for these entries.
Recorded TGI (log10, µM)

Q: Please report the recorded log10 of TGI for Cc1cc(Br)c2nsnc2c1[N+](=O)[O-] .
Ans: 0.90

Q: For the compound shown here, CCc1ccc(Oc2nccc(-c3c(-c4ccc(F)cc4)ncn3C3CCNCC3)n2)cc1 , give the reported log10 of TGI.
Ans: 0.90

Q: Which log10 of TGI reading was recorded for the compound O=CNNC(=O)CSc1nc2ccc(I)cc2c(=O)n1Cc1ccccc1 ?
Ans: 1.56

Q: What does the data say about its log10 of TGI? Entry: CCOC(=O)c1c(SC)nc(-c2ccc(Cl)cc2)sc1=N
Ans: 1.65

Q: What value of log10 of TGI has been reported for the following compound? CCN1CCN(CC(=O)Nc2nc3ccc(NCc4ccc(C)cc4)cc3s2)CC1
Ans: 0.32

====

System: HT29 colon
assay-notes: NCI tumour cell line growth inhibition, 48 h
observable: TGI

Q: May I ask what TGI has been recorded for O=C(N/N=C/c1ccncc1)c1ccc(C(F)(F)F)nc1Nc1cccc(C(F)(F)F)c1 ?
Ans: 11 µM

Q: I am curious: what TGI value has been reported for COc1ccccc1/C=C1\N=C(C)OC1=O ?
Ans: > 100 µM

Q: GET /values?readout=TGI&item= COc1ccc2c(c1)CC[C@@H]1C2CC[C@]2(C)C(=O)N(CCN3CCCCC3)C(=O)CC12 (stereo partly drawn)
Ans: > 100 µM

Q: If you can, please state the reported TGI value of Cc1ccc(S(=O)(=O)Nc2cccc(C)c2C)cc1 .
Ans: > 100 µM

Q: GET /values?readout=TGI&item= O=C1C=Cc2c1csc2Br
Ans: > 100 µM

Q: TGI lookup needed for CNC(=O)C1CCC(=O)N1CN(C(C)=O)c1ccccc1 (stereo not drawn) , thanks.
Ans: > 100 µM

Q: Fill in the blank: the reported TGI of COc1ccccc1NC(=O)CC(=O)n1nc(-c2ccccc2)c(N=Nc2ccccc2[N+](=O)[O-])c1-c1ccccc1 is ____.
Ans: > 100 µM

Q: Looking for the measured TGI of O=Cc1c[nH]c2ccc(-c3csc4ccccc34)cc12 , can you help?
Ans: > 100 µM

Q: Consider the molecule O=C(Nc1sccc1S(=O)(=O)c1ccc(Cl)cc1)c1ccc(Cl)cc1Cl and give its measured TGI.
Ans: > 100 µM

Q: Consider the molecule C[C@@H](Oc1cc(-c2cnn(C3CC4(CNC4)C3)c2)cnc1N)c1c(Cl)ccc(F)c1Cl and give its measured TGI.
Ans: 5.98 µM

Q: Using the record for CCOC(=O)C/C(N)=C(\C#N)C(=O)OCC , report its TGI.
Ans: > 100 µM

Q: // lookup TGI for CC(=O)Nc1c(I)c(C(=O)O)c(I)c(N(C)C(C)=O)c1I
Ans: > 100 µM

Q: Could you tell me which TGI is on file for Cc1ccc(-c2c3c(N)nc(-c4ccncc4)nc3nc3c2c(C)nn3-c2ccccc2)cc1 ?
Ans: > 37.5 µM

Q: Given c1ccc(N=C2C(=Nc3ccccc3)N(C3CCCCC3)C(=NC3CCCCC3)N2c2ccccc2)cc1 , state its recorded TGI.
Ans: > 100 µM

Q: Which TGI is reported for this molecule? COc1ccc2[nH]c3c(C)c4ccnc(NCCCN(C)CCCN)c4c(C)c3c2c1
Ans: 0.17 µM

Q: Report TGI for O=[N+]([O-])c1ccc(/C=N/n2c(CCc3n[nH]c(=S)n3/N=C/c3ccc([N+](=O)[O-])o3)n[nH]c2=S)o1 please.
Ans: 86.4 µM

Q: GET /values?readout=TGI&item= CCN1CCN(CC(=O)Nc2nc3ccc(NCc4ccc(C)cc4)cc3s2)CC1
Ans: 3.48 µM

Q: Would you mind telling me what TGI value was observed for CC(C)[Si](Oc1cc2c3c(ccc2c(O)c1[C@@H](C)CO[Si](C)(C)C(C)(C)C)C(C)(C)CCC3)(C(C)C)C(C)C ?
Ans: > 100 µM

Q: What TGI value was documented for this molecule, Oc1[nH]c2ccc(Cl)cc2c1/C=c1/ccc2c(c1)N=C(c1ccc(C(F)(F)F)cc1)N=2 ?
Ans: 3.94 µM

Q: Consider the molecule O=C(O)CN(CC(=O)O)c1ccccc1 and give its measured TGI.
Ans: > 100 µM

Q: Reported TGI for CC1=C(C(=O)Nc2cccc(C(F)(F)F)c2)C(c2ccccc2F)C(C(=O)Nc2cccc(C(F)(F)F)c2)=C(C)N1 : what is it?
Ans: 11.5 µM

Q: Bench note: what TGI did Cc1no[n+]([O-])c1/C=N/NS(=O)(=O)c1ccccc1 show?
Ans: > 100 µM

Q: Need TGI, item O=C1CC(NCCCNC2CC(=O)c3c(Br)sc(Br)c32)c2c(Br)sc(Br)c21 (stereo not drawn)
Ans: 4.96 µM

Q: Name the reported TGI value associated with the molecule c1csc(-c2sc(-c3ccsc3)cc2Cc2ccsc2)c1
Ans: > 10 µM

Q: State the recorded TGI for this entry: c1ccc2c(c1)ccc1nc3ccccn3c12
Ans: > 100 µM

Q: Form field: reported TGI of COC(=O)CSc1n[nH]c(-c2ccccc2)n1
Ans: > 100 µM

Q: Could you tell me which TGI is on file for O=C1c2ccccc2-c2c1c1c(O)cccc1n2CCCc1ccccc1 ?
Ans: > 100 µM

Q: Item O=[N+]([O-])c1ccc(Oc2cccc(C(F)(F)F)c2)c([N+](=O)[O-])c1 has what recorded TGI?
Ans: 16.2 µM

Q: Looking for the measured TGI of O=C1NC2(NC(=O)C1=O)Nc1ccccc1S2 , can you help?
Ans: > 100 µM

Q: Which TGI value is on record for C=CCN1C(=O)/C(=C/c2ccccc2)N=C1SC1OC(COC(C)=O)C(OC(C)=O)C(OC(C)=O)C1OC(C)=O (stereo not drawn) ?
Ans: > 100 µM

Q: Would you mind telling me what TGI value was observed for NS(=O)(=O)c1ccc(N=Nc2ccc(O)c(O)c2)cc1 ?
Ans: 66.5 µM

Q: # query: TGI of entry Nc1ncnc2c1ccn2CC=C(CO)CO
Ans: > 100 µM

Q: Param item = O=S1CCN(Cc2ccc(-c3ccc4ncnc(Nc5ccc(OCc6ccccc6)c(F)c5)c4c3)o2)CC1 ; retrieve measured TGI.
Ans: > 25 µM

Q: State the recorded TGI for this entry: CC1=C(S(=O)c2ccc(C)cc2)CCC2(CCCCO2)O1 (stereo not drawn)
Ans: > 100 µM

Q: Request the reported TGI associated with N#Cc1ccc(N2Cc3cc(Cl)ccc3OC3=C2C(=O)N(Cc2ccc(F)cc2)C3=O)cc1
Ans: 1.35 µM

Q: Look up TGI for this molecule: COC(=N)c1ncn(Cc2ccccc2)c1N
Ans: > 100 µM

Q: Need TGI of CC(=O)n1cc(CC(C)O)c(=O)[nH]c1=O (stereo not drawn) , thanks.
Ans: > 100 µM

Q: # lookup: TGI of CN(C)C=NCc1ccc2c(c1)OCO2
Ans: > 100 µM

Q: Given the molecule Cc1ccccc1C(=O)NC(O)(C(F)(F)F)C(F)(F)F , what is its reported TGI?
Ans: > 100 µM

Q: Entry O=CNNC(=O)CSc1nc2ccc(I)cc2c(=O)n1Cc1ccccc1 : reported TGI = ?
Ans: > 100 µM

Q: Consider the molecule Cc1ccc(S(=O)(=O)Nn2c(C)cc3ccc(S(=O)(=O)Nc4ccccc4[N+](=O)[O-])cc3c2=O)cc1 and give its measured TGI.
Ans: > 100 µM

Q: Need TGI, item CC(=O)[C@H]1[C@@H](OCc2ccccc2)O[N+]([O-])=C(C)[C@@H]1c1ccccc1
Ans: 33.8 µM

Q: Tell me the measured TGI of CCOC(=O)C1=COC(C)(C)CC1=O , please.
Ans: > 100 µM

====

Provide the recorded TGI for the entries that follow.
Tested on: ACHN renal
assay-notes: NCI tumour cell line growth inhibition, 48 h
The answer is to be given in µM; state only the numeric part.

Q: Form field: reported TGI of CC(C)CNC(=O)c1c(NC(=O)c2ccccc2)sc2[nH]c(=O)n(-c3ccccc3)c(=O)c12
Ans: 61

Q: # get_value(readout='TGI', item= CCOC(=O)C1=C(C)NC(C)=C(C(=O)OCC)C1c1cc(Br)c(O)c(OC)c1 )
Ans: 22

Q: Dear colleague, I am looking for the recorded TGI of the following compound: O=C1CC(NC2CC(=O)c3c(Br)sc(Br)c32)c2c(Br)sc(Br)c21 (stereo not given)
Ans: 5.22

Q: Name the recorded TGI for CC(=O)[C@H]1[C@@H](OCc2ccccc2)O[N+]([O-])=C(C)[C@@H]1c1ccccc1 .
Ans: 78.4

====

For each entry below, report its TGI value.
Tested on: HOP-62 NSCLC
assay-notes: NCI tumour cell line growth inhibition, 48 h

Q: State the recorded TGI for this entry: c1csc(-c2ccc(-c3ccsc3)s2)c1
Ans: > 100 µM

Q: State the recorded TGI for this entry: Nc1ncnc2c1ccn2CC=C(CO)CO
Ans: > 100 µM

Q: What does the data say about its TGI? Entry: Cc1ccc([S+](c2ccccc2)c2cc(C)ccc2C)cc1 (centres undefined)
Ans: 90.8 µM

Q: Which TGI value belongs to S=C1NCCN1C(=S)NC1CCCCC1 ?
Ans: > 100 µM
